Target: DRB1*0101 (DR1) (human, UniProt P01903 26-254)
Assay: binding to purified HLA
pIC50: −log10 of the molar value.
parameter: pIC50

- NGIEWAIANNMDVIN [BPN' Y217L .109]: 8.06

a = GSISYPARYANAMAV [B. lentus 157]
b = SYPARYANAMAVGAT [B. lentus .160]
c = GTVAALNNSIGVLGV [BPN' Y217L .70]
I would appreciate it if you could sort these 3 binders by pIC50, starting from the smallest number. Labels, ranked as asked.
a, b, c
